A collection of compounds and their measured inhibition at 1 µM
Target: MAGL (Mus musculus)
Sequence (O35678 1-303): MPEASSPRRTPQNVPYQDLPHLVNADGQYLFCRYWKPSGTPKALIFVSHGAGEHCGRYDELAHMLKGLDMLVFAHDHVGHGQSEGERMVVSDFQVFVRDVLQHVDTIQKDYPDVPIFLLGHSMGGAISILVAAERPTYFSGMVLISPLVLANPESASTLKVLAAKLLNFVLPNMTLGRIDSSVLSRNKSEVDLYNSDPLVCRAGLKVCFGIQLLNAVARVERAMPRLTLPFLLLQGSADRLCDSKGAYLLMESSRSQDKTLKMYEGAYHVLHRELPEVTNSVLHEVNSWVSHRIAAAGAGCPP
Test: In vitro competitive ABPP, % inhibition at fixed concentration, MAGL
Type: biochemical
Set-up: from tissue
REPORTED_ENDPOINT: inhibition at 1 µM

INSERT INTO assay_data (compound, measured_value) VALUES
  ('O=C(ON1C(=O)CCC1=O)N1CCN(Cc2ccc(N3CCOCC3)cc2)CC1 [Example 100]', '< 25%'),
  ('O=C(ON1C(=O)CCC1=O)N1CCN(Cc2cc(C(F)(F)F)ccc2C(=O)N2CCOCC2)CC1 [Example 203]', '< 25%'),
  ('Cc1cccc(-c2ccc(CN3CCN(C(=O)ON4C(=O)CCC4=O)CC3)nc2C)c1 [Example 180]', '> 75%'),
  ('Cc1cc(-c2cccnc2C)ccc1CN1CCN(C(=O)ON2C(=O)CCC2=O)CC1 [Example 170]', '25 to 75%'),
  ('O=C(ON1C(=O)CCC1=O)N1CCN(Cc2ccc(C(=O)N3CCC3)cc2Cl)CC1 [Example 194]', '25 to 75%'),
  ('O=C(ON1C(=O)CCC1=O)N1CCN(Cc2cc(Cl)ccc2C(=O)N2CCCC2)CC1 [Example 200]', '< 25%'),
  ('Cc1c(CN2CCN(C(=O)ON3C(=O)CCC3=O)CC2)cccc1C(=O)N1CCCC1 [Example 206]', '25 to 75%'),
  ('Cc1ccc(N2CCCC2)c(CN2CCN(C(=O)ON3C(=O)CCC3=O)CC2)c1 [Example 128]', '25 to 75%'),
  ('O=C(ON1C(=O)CCC1=O)N1CCN(Cc2ccc(N3CCOCC3)cc2C(F)(F)F)CC1 [Example 76]', '25 to 75%'),
  ('O=C(ON1C(=O)CCC1=O)N1CCN(Cc2cccc(Cl)c2C(=O)N2CCCC2)CC1 [Example 190]', '25 to 75%'),
  ('Cc1nc(CN2CCN(C(=O)ON3C(=O)CCC3=O)CC2)ccc1-c1cccc(F)c1 [Example 181]', '25 to 75%'),
  ('O=C(ON1C(=O)CCC1=O)N1CCC(C(O)(c2ccc3c(c2)COC3)c2ccc3c(c2)COC3)CC1 [Example 158]', '25 to 75%'),
  ('COc1ccc(-c2cc(CN3CCN(C(=O)ON4C(=O)CCC4=O)CC3)no2)cc1 [Example 136]', '25 to 75%'),
  ('O=C(ON1C(=O)CCC1=O)N1CCN(Cc2c(Cl)cccc2N2CCOCC2)CC1 [Example 81]', '< 25%'),
  ('C[C@@H]1CN(Cc2ccc(N3CCOCC3)cc2OC(F)(F)F)CCN1C(=O)ON1C(=O)CCC1=O [Example 103]', '< 25%'),
  ('Cc1ccccc1-c1ccc(CN2CCN(C(=O)ON3C(=O)CCC3=O)CC2)c(C)n1 [Example 182]', '25 to 75%'),
  ('O=C(ON1C(=O)CCC1=O)N1CCN(Cc2cccc(Cl)c2C(=O)N2CCOCC2)CC1 [Example 198]', '< 25%');
